- subject.of.test: Cytochrome P450 1A2 (Homo sapiens) (UniProt P05177)
- Sequence (P05177 whole entry, looked up): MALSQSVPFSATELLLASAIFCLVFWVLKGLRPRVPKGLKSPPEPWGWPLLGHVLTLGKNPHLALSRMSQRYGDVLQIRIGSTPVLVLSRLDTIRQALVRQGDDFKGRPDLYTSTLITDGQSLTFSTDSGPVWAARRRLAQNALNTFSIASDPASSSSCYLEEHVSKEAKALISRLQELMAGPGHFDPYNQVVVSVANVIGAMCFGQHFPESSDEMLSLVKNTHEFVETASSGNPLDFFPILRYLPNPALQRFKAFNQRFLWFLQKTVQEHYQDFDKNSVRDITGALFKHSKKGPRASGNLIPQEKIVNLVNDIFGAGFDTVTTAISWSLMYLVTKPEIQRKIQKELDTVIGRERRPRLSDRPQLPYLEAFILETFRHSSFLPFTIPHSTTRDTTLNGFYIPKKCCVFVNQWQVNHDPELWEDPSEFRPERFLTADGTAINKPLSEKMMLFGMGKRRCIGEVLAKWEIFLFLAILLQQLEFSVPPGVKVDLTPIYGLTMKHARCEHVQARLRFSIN
- experiment.summary: p450-cyp1a2 (AID 410)
- condition.info: recombinant CYP1A2, luciferin-ME demethylation, luminescence; series mostly up to 57 µM
Records with an inconclusive call do not appear. Calls of active or inactive are those of the source. Calls come from the whole dose curve.
Pick one: TRUE = active, FALSE = inactive

Query :: For CN1CCN(c2ncc3nc(-c4ccccc4)c(=O)n(C)c3n2)CC1 , what call appears in the results of this test?
Result :: TRUE

Query :: Cc1cccc(CNc2ccnc(-c3ccccc3CN(C)C)n2)c1 , same question.
Result :: TRUE

Query :: Please answer likewise for N#CCCn1c(=O)c(CCc2ccccc2)nc2cnc(Nc3ccccc3)nc21
Result :: FALSE

Query :: Again, but for Cc1noc(C)c1C(=O)N1CCC2(CCCN(c3ccncc3)C2)CC1
Result :: FALSE

Query :: Query N#CCCn1c(=O)c(-c2ccccc2)nc2cnc(Nc3ccccc3)nc21 next
Result :: TRUE

Query :: Also need Clc1ccccc1-c1nc(NCc2cccs2)c2ccccc2n1 , thanks.
Result :: TRUE

Query :: Try this molecule next: O=C(Oc1ccccc1)N1CCC2(CC1)CN(c1ncccn1)C2
Result :: TRUE

Query :: What do you get for FC(F)(F)c1ccccc1-c1ccc2ncnc(NC3CC3)c2c1 ?
Result :: TRUE

Query :: Okay, and CN(Cc1ccco1)c1cc(-c2cccnc2)ncn1 ?
Result :: TRUE

Query :: Then what about the molecule COc1ccc(-c2nc3cnc(Nc4ccccc4)nc3n(CCC#N)c2=O)cc1 ?
Result :: TRUE

Query :: // next record CCN[C@@H]1C[C@H](C)S(=O)(=O)c2sc(S(N)(=O)=O)cc21
Result :: FALSE

Query :: How about this molecule: C[C@H]1NC(=O)NC1=O
Result :: FALSE

Query :: Another: CN(C)CC/C=C1\c2ccccc2CSc2ccccc21
Result :: FALSE

Query :: What about this molecule? N#Cc1ccc(CN2CCC3(CC2)CCN(C(=O)c2csnn2)CC3)cc1
Result :: FALSE

Query :: Could you do the same for O=C(c1ccco1)N1CCC2(CCN(Cc3ccncc3)CC2)CC1 , please?
Result :: TRUE

Query :: Thanks! And Cn1c(=O)c(CCc2ccccc2)nc2cncnc21 ?
Result :: TRUE

Query :: Same read-out for CN(C)CC[C@@H](c1ccccc1)c1ccccn1 ?
Result :: FALSE

Query :: For O=C(Nc1cccc(F)c1)N1CC2(CCN(C(=O)c3cc(C(F)(F)F)cc(C(F)(F)F)c3)CC2)C1 then?
Result :: FALSE

Query :: Next up: COCC(=O)N1CCC2(CCCN(c3ccncc3)C2)CC1
Result :: FALSE

Query :: Param item: CCNc1ncc2nc(-c3ccccc3)c(=O)n(Cc3ccc(F)cc3)c2n1
Result :: TRUE

Query :: Entry CCNc1ncc2nc(-c3ccc(OC)cc3)c(=O)n(CCC#N)c2n1 please
Result :: TRUE

Query :: Moving on to CN1CCN(c2ccnc(-c3cccc(NS(C)(=O)=O)c3)n2)CC1
Result :: TRUE

Query :: Now try COc1cccc(Nc2ncc3nc(-c4ccc(Cl)cc4)c(=O)n(CCC#N)c3n2)c1 .
Result :: TRUE

Query :: Also, COc1ccc(NC(=O)N2CCC3(CC2)CCN(C(=O)c2ccncc2)CC3)cc1 please.
Result :: TRUE

Query :: Okay, and FC(F)(F)c1ccccc1-c1ccc2ncnc(NCc3cccs3)c2c1 ?
Result :: TRUE

Query :: How about this molecule: COc1cccc(-c2cc(NCc3ccc(OC)cc3OC)ncn2)c1
Result :: TRUE

Query :: Now try C[C@@H](CN(C)C)CN1c2ccccc2CCc2ccccc21 .
Result :: FALSE

Query :: Now this one: Cc1nc2cnc(Oc3cccc(Cl)c3)nc2n(C2CC2)c1=O
Result :: TRUE

Query :: How about this molecule: CN(C)C(=O)c1ccc(-c2cncnc2NCc2ccccc2)cc1
Result :: TRUE

Query :: Same question, O=C(c1ccncc1)N1CCC2(CC1)CN(Cc1cc(C(F)(F)F)cc(C(F)(F)F)c1)C2 this time
Result :: FALSE

Query :: How about this molecule: N#Cc1cccc(-c2nccc(NCc3cccnc3)n2)c1
Result :: TRUE

Query :: Cool, now O=c1c(CCc2ccccc2)nc2cncnc2n1C1CC1
Result :: TRUE

Query :: Try the molecule CC(C)CN1CCCC2(CCN(S(=O)(=O)c3ccccc3)CC2)C1
Result :: FALSE

Query :: Also CS(=O)(=O)N1CCC[C@@]2(CCN(c3ccncc3)C2)C1 ?
Result :: FALSE
